The reported numbers originate from ChEMBL document CHEMBL5380798.

target: Transthyretin (Homo sapiens); assay: Inhibition of recombinant wild-type Transthyretin (unknown origin) expressed in Escherichia coli expression system assessed as acid mediated fibril formation at 3.6 uM preincubated for 2 hrs followed by addition of acetate buffer solution and measured after 72 hrs by UV-vis spectrophotometry relative to control; settings: time 74.0 hrs, values are per cent of control
property-measured: response, % of control (%)

Example cases with answers are listed next.
Asked: Given CCCC(=O)Oc1c(Br)cc(/C=C/c2c(C)n[nH]c2C)cc1Br , state its recorded response, % of control.
Given back: 0.3

Asked: Then what about the compound Cc1n[nH]c(C)c1/C=C/c1cc(Br)c(OC(=O)c2ccc(F)cc2)c(Br)c1 ?
Given back: 0.2

Asked: Then what about the compound CCC(C)C(=O)Oc1c(Br)cc(/C=C/c2c(C)n[nH]c2C)cc1Br (configuration not stated) ?
Given back: 0.3

Asked: Then what about the compound O=C(O)c1ccc2nc(-c3cc(Cl)cc(Cl)c3)oc2c1 ?
Given back: 11.1

Asked: Then what about the compound Cc1n[nH]c(C)c1/C=C/c1cc(Br)c(OC(=O)c2c(F)cccc2F)c(Br)c1 ?
Given back: 0.3

(P) Cc1n[nH]c(C)c1/C=C/c1cc(Br)c(OC(=O)c2c(F)cc(F)cc2F)c(Br)c1
(Q) Cc1n[nH]c(C)c1/C=C/c1cc(Br)c(O)c(Br)c1
Asked: Kindly identify the item with the lower response, % of control figure among these two: P and Q // return label of chosen record
Given back: P
(P: 0.3%, Q: 9.2%)
